The values you see were collected from the FLAb antibody collection (doi:10.7554/elife.23156).

B1: scFv; the commonest letter at each place (parent)
chain 1: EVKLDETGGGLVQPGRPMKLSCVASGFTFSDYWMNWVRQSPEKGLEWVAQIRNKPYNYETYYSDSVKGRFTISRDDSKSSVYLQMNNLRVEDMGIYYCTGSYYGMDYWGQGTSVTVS
chain 2: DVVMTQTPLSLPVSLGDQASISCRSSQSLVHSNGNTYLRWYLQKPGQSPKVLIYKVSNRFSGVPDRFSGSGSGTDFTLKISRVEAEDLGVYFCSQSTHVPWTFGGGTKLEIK

Variants of: B1
assay-remarks: Kd (Tite-Seq)
condition-notes: with fluorescein; format: scFv 4-4-20, heavy + light
quantity: Kd (µM)
One number for each entry, in µM.

chain 1 Y102Q Y103A
8.13

Entry chain 1 D31V Y32L , Kd reported as 0.972
